targetEntity: Trypanothione reductase (Trypanosoma brucei brucei)
Sequence (P39051 whole entry): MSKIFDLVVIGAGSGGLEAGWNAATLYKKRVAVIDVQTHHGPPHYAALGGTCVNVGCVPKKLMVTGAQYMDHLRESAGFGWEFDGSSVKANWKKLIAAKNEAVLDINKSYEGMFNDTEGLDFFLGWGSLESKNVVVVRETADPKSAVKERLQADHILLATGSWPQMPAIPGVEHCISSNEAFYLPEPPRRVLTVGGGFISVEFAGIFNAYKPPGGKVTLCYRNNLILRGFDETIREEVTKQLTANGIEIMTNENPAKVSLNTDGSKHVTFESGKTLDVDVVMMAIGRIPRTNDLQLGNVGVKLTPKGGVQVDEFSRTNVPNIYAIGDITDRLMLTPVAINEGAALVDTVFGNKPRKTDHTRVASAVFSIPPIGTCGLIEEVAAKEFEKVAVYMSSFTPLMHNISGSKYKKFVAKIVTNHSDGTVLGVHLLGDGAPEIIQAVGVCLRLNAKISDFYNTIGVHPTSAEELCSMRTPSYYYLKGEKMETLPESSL
runDescription: Inhibition of recombinant trypanothione reductase from Trypanosoma brucei brucei S427 by DTNB-coupled spectrophotometric assay
propertyMeasured: log10(IC50) (log10 of the value in µM)
Parameter value (number): base-10 log of IC50 in µM.

See these solved cases before continuing.
• CC1=Nc2ccc(Cl)cc2C(c2ccccc2)N1CCNC(=O)OC(C)(C)C (racemic) = 0.41
• CC1=Nc2ccc(Br)cc2C(c2ccccc2)N1CC(=O)NN (racemic) = 1.18
• CC1=Nc2ccc(Cl)cc2C(c2ccccc2)N1CCN1CCN(C(=O)CN(C)C)CC1 (racemic) = -0.43
• CC1=Nc2ccc(Cl)cc2C(c2cccc(F)c2)N1CCN1CCCCC1 (centres undefined) = -0.05
• CC1=Nc2ccc(-c3cc4ccccc4o3)cc2C(c2ccccc2)N1CCN1CCCCC1 (racemic) = 0.93

Then there is this molecule:
Exercise: // lookup log10(IC50) for CC1=Nc2ccc(Cl)cc2C(c2ccc(Cl)c(Cl)c2)N1CCN1CCCCC1 (racemic)
Solution: 0.11
